Sourced from PubChem BioAssay (NCI)

- System: COLO 205 colon
- measurement.description: NCI-60 one-dose screen, 48 h (100 = growth as untreated, 0 = no growth, -100 = all killed)
- run.conditions: 10 µM unless noted
- Experimental: Cells are grown in 96 well plates and exposed to the test compound for 48 hours. Compounds are tested at a single concentration, which is 10^-5 M for most compounds. The reported endpoint is percent growth (GI% or GIPRCNT), where numbers from 0 - 100% represent growth inhibition, and numbers from -100% - 0 represent cell death. For example, a value of 40 represents 60% growth inhibition. A value of 0 means no net growth occurred over the course of the experiment. […]
The panel holds about 83,000 compounds, 20% with a hit somewhere; the sample as a whole holds those more often.
Below is a list of entries, each paired with its recorded growth value.
Report the figure in % without appending any unit label.

O=C(CCl)NCCNc1nccc(Nc2ccc(S(=O)(=O)Nc3ccccn3)cc2)n1: 61.1
COc1ccc(/C=C/c2cc(N3CCOCC3)c3cc(F)c(F)cc3n2)cc1OC: 11.8
COc1cc(C2C=C(C)N=C3SC=CN32)cc(OC)c1OC (stereo not given): 113

IN: For the record COC(=O)C(CC(=O)c1ccc(-c2ccccc2)cc1)c1ccccc1 (stereo not given) , what value of growth is listed for COLO 205 colon?
OUT: 36.7

IN: For the record COC12CC(=O)C(C(C)=O)=C(O)C1(C)c1c(O)c(C)c(O)c(C(C)=O)c1O2 (stereo not given) , what value of growth is listed for COLO 205 colon?
OUT: 99.8

IN: For the record "COc1ccc(S(=O)(=O)N2CCN(c3cc4c(cc3F)c(=O)c(C(=O)O)cn4C3CC3)CC2)c(OC)c1" , what value of growth is listed for COLO 205 colon?
OUT: 105

IN: For the record "Cn1c(-c2nonc2NC(=O)c2ccc(F)cc2)nc2ccccc21" , what value of growth is listed for COLO 205 colon?
OUT: 117

IN: For the record "Cc1cccc(NC(=O)c2sc3nc4c(cc3c2N)CCC4)c1C" , what value of growth is listed for COLO 205 colon?
OUT: 6.68

----------
- Test system: SK-MEL-28 melanoma
- measurement.description: NCI-60 one-dose screen, 48 h
- run.conditions: 10 µM unless noted
The panel holds about 83,000 compounds, 20% with a hit somewhere; the sample as a whole holds those more often. Calls of active or inactive are those of the source. Rule for the calls: active = growth percent below 10; inactive = the rest.
Field 'call' accepts y (active), n (inactive)

Look over these answered cases.
CC1=NN2C(=NC3=C(CCC/C3=C\c3ccc(Cl)cc3)C2c2ccc(Cl)cc2)S1 (stereo not given): n
COC(=O)CCCCCN=Cc1c(O)c(O)c(C(C)C)c2cc(C)c(-c3c(C)cc4c(C(C)C)c(O)c(O)c(C=NCCCCCC(=O)OC)c4c3O)c(O)c12: n
NS(=O)(=O)c1ccc(CN2C(=O)c3cccc4cccc(c34)C2=O)cc1: n
CC(C)(C)c1ccc(S(=O)(=O)Oc2ccc3c4c(c(=O)oc3c2)CCCCC4)cc1: n
CC1CCc2c(sc(NC(=O)CSc3nnc4ccccn34)c2C(N)=O)C1 (stereo not given): n

IN: Could you check what this test reported for "CCO/C=N/NC(=O)c1ccncc1" ?
OUT: n

----------
- Tested on: CAKI-1 renal
- measurement.description: NCI-60 one-dose screen, 48 h (100 = growth as untreated, 0 = no growth, -100 = all killed)
- run.conditions: 10 µM unless noted
Compounds without any hit were thinned out: in the full panel of roughly 83,000, 20% have a hit.
Kindly apply the following: Met if growth is less than 60%, Not met in every other case.

CCN1C(=O)N(CC)C2Nn3c(s/c(=C4\C(=O)N(C5CCCC5)c5ccccc54)c3=O)=NC21 (stereo not given): Met
O=C(Nc1ccc(I)cc1)c1cc([N+](=O)[O-])ccc1O: Met
COc1ncc(-c2ccc3ncnc(Nc4cccc(Cl)c4)c3c2)cc1N(S(C)(=O)=O)S(C)(=O)=O: Met

Could you now consider this next compound?
IN: growth strictly < 60% for this compound? "COc1cc(Br)c(OC)cc1Br"
OUT: Not met

----------
- System: CAKI-1 renal
- measurement.description: NCI-60 one-dose screen, 48 h (100 = growth as untreated, 0 = no growth, -100 = all killed)
- run.conditions: 10 µM unless noted
- Procedure: Growth inhibition of the CAKI-1 human tumor cell line is measured as a screen for anti-cancer activity. Cells are grown in 96 well plates and exposed to the test compound for 48 hours. Compounds are tested at a single concentration, which is 10^-5 M for most compounds. The reported endpoint is percent growth (GI% or GIPRCNT), where numbers from 0 - 100% represent growth inhibition, and numbers from -100% - 0 represent cell death. For example, a value of 40 represents 60% growth inhibition. […]
The panel holds about 83,000 compounds, 20% with a hit somewhere; the sample as a whole holds those more often.
Kindly apply the following: T if growth is less than 80%, F in every other case.

COc1cc(NC(=O)CSc2nc3ccc(C)cc3c(=O)n2-c2ccccc2)cc(OC)c1OC: F
COc1ccc(C2SCC(=O)N2NC(=O)c2ccc(NC(=O)c3ccccn3)cc2)cc1OC (stereo not given): F
COc1ccc(/C(=N\O)c2cc(OC)c(OC)c(OC)c2)c(OC)c1N: T

IN: growth strictly < 80% for this molecule? CCN(CC)CCCC(C)N=c1cc(Nc2cc(=NC(C)CCCN(CC)CC)c3cc(OC)ccc3o2)oc2ccc(OC)cc12 (stereo not given)
OUT: T

----------
Below is a list of entries, each paired with its recorded growth value.
- System: A549/ATCC NSCLC
- measurement.description: NCI-60 one-dose screen, 48 h (100 = growth as untreated, 0 = no growth, -100 = all killed)
- run.conditions: 10 µM unless noted
- Procedure: Growth inhibition of the A549/ATCC human Non-Small Cell Lung tumor cell line is measured as a screen for anti-cancer activity. Cells are grown in 96 well plates and exposed to the test compound for 48 hours. Compounds are tested at a single concentration, which is 10^-5 M for most compounds. The reported endpoint is percent growth (GI% or GIPRCNT), where numbers from 0 - 100% represent growth inhibition, and numbers from -100% - 0 represent cell death. […]
This is part of a sample that, as a whole, favours compounds with a hit. Of some 83,000 tested, about 20% had one in any assay.
Report the figure in % without appending any unit label.

COc1ccc(C(=O)c2cc(OC)c(OC)c(OC)c2)cc1/C=C/C(=O)c1ccc(OC)c(OC)c1: 57.1
Cc1cccc(NC(=O)c2sc3nc4c(cc3c2N)CCC4)c1C: 18.6
O=C1c2ccccc2C(=O)c2c1oc1oc3c(c(=O)c21)c(=O)n(-c1ccccc1)c1ccccc31: 37.7

IN: For the record "COc1cccc(-c2nc3sccn3c2-c2ccnc(NCCCNS(=O)(=O)c3ccc(F)cc3)n2)c1" , what value of growth is listed for A549/ATCC NSCLC?
OUT: 41.6

----------
- Test system: NCI/ADR-RES ovarian
- measurement.description: NCI-60 one-dose screen, 48 h (100 = growth as untreated, 0 = no growth, -100 = all killed)
- run.conditions: 10 µM unless noted
The panel holds about 83,000 compounds, 20% with a hit somewhere; the sample as a whole holds those more often. Calls of active or inactive are those of the source. Rule for the calls: active = growth percent below 10; inactive = the rest.
metric: growth

IN: Tell me the measured growth of "Cc1cc2c(C(C)C)c(O)c(O)c(C=NCCCCC(=O)O)c2c(O)c1-c1c(C)cc2c(C(C)C)c(O)c(O)c(C=NCCCCC(=O)O)c2c1O" , please.
OUT: 74.2% (inactive)

IN: Tell me the measured growth of CCC(c1ccc(OC)cc1)C(CC)c1ccc(O)c(CN2CCCC2)c1 (centres undefined) , please.
OUT: 18.7% (inactive)

IN: Tell me the measured growth of "O=S(=O)(NCCCNc1nccc(-c2c(-c3ccc(O)cc3)nc3sccn23)n1)c1ccc(F)cc1" , please.
OUT: 48.9% (inactive)

IN: Tell me the measured growth of CCCCCCCCCCCCCCCCC(Br)C(=O)O (centres undefined) , please.
OUT: 110% (inactive)

IN: Tell me the measured growth of "O=C(CNc1ccc(Cl)cc1)Nc1ccc(-c2nc3ccccc3s2)cc1" , please.
OUT: 64.5% (inactive)

IN: Tell me the measured growth of COc1cc(/C=C2\CCCC3=C2N=C2SC(C)=NN2C3c2cc(OC)c(OC)c(OC)c2)cc(OC)c1OC (centres undefined) , please.
OUT: 8.69% (active)

IN: Tell me the measured growth of "O=C1OC(c2ccccc2)=N/C1=C\c1ccc([N+](=O)[O-])cc1" , please.
OUT: 104% (inactive)

IN: Tell me the measured growth of "C=CCc1cc(Cl)cc2c(OC(C)=O)c(C(C)=O)c(-c3ccccc3)nc12" , please.
OUT: 119% (inactive)

IN: Tell me the measured growth of "COc1ccc(/C=C/c2cc(N3CCOCC3)c3cc(F)c(F)cc3n2)cc1OC" , please.
OUT: 4.66% (active)
